- Compound: "Fc1cc(F)c(-c2c(Cl)nc3ncncc3c2Cl)c(F)c1"
  Units text: "°C"
  melting point: 169
- Compound: "Cc1ccc2c(O)c(-c3c(F)cc(F)cc3F)c(C)nc2n1"
  Units text: "°C"
  melting point: 315
- Compound: "Fc1cc(F)c(-c2c(OCc3ccccc3)nc3ncncc3c2Cl)c(F)c1 (hydrate or solvate)"
  Units text: "°C"
  melting point: 146
- Compound: "CC1CCN(c2c(-c3c(F)cc(F)cc3F)c(O)nc3ncncc23)CC1"
  Units text: "°C"
  melting point: 268
